Tested on: MDA-MB-231
Assay: Anti-proliferative activity against human MDA-MB-231 cells after 48 hrs by MTT assay
Format: functional, cell-based
Details: MDA-MB-231, 48 h
ASSAY ENDPOINT: IC50 (nM)
Entry rule: numbers only, all in nM.

{"GIVEN SMILES": "O=C(CCCCCCNc1ncnc2ccc(F)cc12)NO", "EXPERIMENTAL TARGET": "MDA-MB-231", "IC50 [nM]": 490}

Read the next record carefully.
Request: Name the reported IC50 value associated with the compound O=C(CCCCCCNc1ncnc2ccc(Cl)cc12)NO
Result: 170

----------
Assay: Terminal half life in Sprague-Dawley rat at 2 mg/kg, iv by HPLC method
Assay type: ADME, organism-based
Settings: in vivo, read-out: beta t1/2 (converted)
ASSAY ENDPOINT: half-life (h)
Entry rule: numbers only, all in h.

Request: Name the reported half-life value associated with the compound O=C(CCCCCCNc1ncnc2ccc(Cl)cc12)NO
Result: 2.87

----------
System: MRC5
Experiment: Anti-proliferative activity against human MRC5 cells after 48 hrs by MTT assay
Type: ADME, cell-based
Details: MRC5, 48 h
List of pIC50 values.
Please report pIC50 as the negative decimal logarithm of the molar concentration, giving only the number.

{"GIVEN SMILES": "O=C(CCCCCCNc1ncnc2ccc(Cl)cc12)NO", "EXPERIMENTAL TARGET": "MRC5", "pIC50": 4.26}

Read the next record carefully.
Request: Write down the reported pIC50 of O=C(CCCCCCNc1ncnc2ccc(F)cc12)NO , test system: MRC5.
Result: 4.12

----------
Assay: Tmax in Sprague-Dawley rat at 20 mg/kg, po by HPLC method
Type: ADME, organism-based
Details: in vivo
ASSAY ENDPOINT: Tmax (min)
Entry rule: numbers only, all in min.

Request: Name the reported Tmax value associated with the compound O=C(CCCCCCNc1ncnc2ccc(Cl)cc12)NO
Result: 15

----------
Assay: in vivo
Details: Sprague-Dawley, rat, po, 20 mg/kg
Description: Oral bioavailability in Sprague-Dawley rat 20 mg/kg administered via gavage by LC-MS/MS analysis
ASSAY ENDPOINT: bioavailability (%)
Entry rule: numbers only, all in %.

Request: Name the reported bioavailability value associated with the molecule O=C(CCCCCCC(=O)Nc1ccccc1)NO
Result: 11

----------
Record: IC50 reported on Protein deacetylase HDAC6 (Homo sapiens).
Sequence (Q9UBN7 whole entry): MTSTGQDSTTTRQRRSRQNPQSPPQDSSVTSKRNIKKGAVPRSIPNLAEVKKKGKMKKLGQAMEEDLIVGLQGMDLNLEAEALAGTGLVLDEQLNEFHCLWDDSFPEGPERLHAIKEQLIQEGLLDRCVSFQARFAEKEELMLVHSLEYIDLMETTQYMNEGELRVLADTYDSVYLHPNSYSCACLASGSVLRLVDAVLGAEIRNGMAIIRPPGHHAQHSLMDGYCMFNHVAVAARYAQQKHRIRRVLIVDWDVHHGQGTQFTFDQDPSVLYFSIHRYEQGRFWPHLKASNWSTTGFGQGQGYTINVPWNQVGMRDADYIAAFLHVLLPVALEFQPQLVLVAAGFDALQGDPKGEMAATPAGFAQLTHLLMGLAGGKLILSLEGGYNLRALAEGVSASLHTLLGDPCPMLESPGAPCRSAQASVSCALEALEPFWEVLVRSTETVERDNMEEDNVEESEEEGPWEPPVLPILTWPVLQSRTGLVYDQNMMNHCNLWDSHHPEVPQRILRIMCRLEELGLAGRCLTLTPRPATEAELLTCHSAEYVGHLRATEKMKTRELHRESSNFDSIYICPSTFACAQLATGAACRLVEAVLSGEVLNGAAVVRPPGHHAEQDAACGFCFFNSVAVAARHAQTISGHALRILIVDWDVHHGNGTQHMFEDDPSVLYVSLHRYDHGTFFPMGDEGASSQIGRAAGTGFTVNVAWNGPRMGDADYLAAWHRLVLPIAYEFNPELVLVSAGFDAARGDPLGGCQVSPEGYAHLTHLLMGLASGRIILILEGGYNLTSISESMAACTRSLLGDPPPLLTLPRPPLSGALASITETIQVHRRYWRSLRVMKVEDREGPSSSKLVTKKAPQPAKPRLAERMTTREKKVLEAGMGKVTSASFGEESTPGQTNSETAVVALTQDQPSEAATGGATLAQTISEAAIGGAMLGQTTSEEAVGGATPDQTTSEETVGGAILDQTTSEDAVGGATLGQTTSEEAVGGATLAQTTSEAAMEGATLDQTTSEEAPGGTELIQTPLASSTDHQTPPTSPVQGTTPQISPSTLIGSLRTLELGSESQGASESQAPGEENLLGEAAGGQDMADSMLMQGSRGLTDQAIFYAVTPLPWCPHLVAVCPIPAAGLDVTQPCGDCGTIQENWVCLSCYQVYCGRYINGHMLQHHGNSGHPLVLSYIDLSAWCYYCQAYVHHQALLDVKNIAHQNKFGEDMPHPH

{"GIVEN SMILES": "O=C(CCCCCCNc1ncnc2ccc(Cl)cc12)NO", "IC50": "7 nM"}

Read the next record carefully.
Request: Name the reported IC50 value associated with the compound O=C(CCCCCCNc1ncnc2ccc(F)cc12)NO
Result: 8 nM

----------
Experiment: Oral bioavailability in Sprague-Dawley rat at 20 mg/kg by HPLC method
Assay type: ADME, organism-based
Details: in vivo
ASSAY ENDPOINT: bioavailability (%)
Entry rule: numbers only, all in %.

Request: Name the reported bioavailability value associated with the molecule O=C(CCCCCCNc1ncnc2ccc(Cl)cc12)NO
Result: 16.8

----------
Record: pIC50 reported on Histone deacetylase 8 (Homo sapiens, UniProt Q9BY41).
Sequence (Q9BY41 whole entry): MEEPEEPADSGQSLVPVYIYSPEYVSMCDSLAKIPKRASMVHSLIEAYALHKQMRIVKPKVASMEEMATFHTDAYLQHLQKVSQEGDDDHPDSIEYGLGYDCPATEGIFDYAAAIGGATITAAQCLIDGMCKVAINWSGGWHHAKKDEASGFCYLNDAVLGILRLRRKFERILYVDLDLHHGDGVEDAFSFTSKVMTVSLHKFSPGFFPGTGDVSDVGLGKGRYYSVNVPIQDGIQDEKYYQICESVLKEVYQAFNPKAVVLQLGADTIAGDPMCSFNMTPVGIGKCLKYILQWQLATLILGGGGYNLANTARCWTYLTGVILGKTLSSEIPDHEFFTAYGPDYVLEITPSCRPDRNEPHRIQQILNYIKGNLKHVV
Please report pIC50 as the negative decimal logarithm of the molar concentration, giving only the number.

Request: Write down the reported pIC50 of O=C(CCCCCCNc1ncnc2ccc(F)cc12)NO , test system: Histone deacetylase 8 (Homo sapiens, UniProt Q9BY41).
Result: 5.84

Request: Write down the reported pIC50 of O=C(CCCCCCNc1ncnc2ccc(Cl)cc12)NO , test system: Histone deacetylase 8 (Homo sapiens, UniProt Q9BY41).
Result: 5.71

----------
List of pIC50 values.
Target: Voltage-gated inwardly rectifying potassium channel KCNH2 (Homo sapiens, UniProt Q12809)
Sequence (Q12809 whole entry): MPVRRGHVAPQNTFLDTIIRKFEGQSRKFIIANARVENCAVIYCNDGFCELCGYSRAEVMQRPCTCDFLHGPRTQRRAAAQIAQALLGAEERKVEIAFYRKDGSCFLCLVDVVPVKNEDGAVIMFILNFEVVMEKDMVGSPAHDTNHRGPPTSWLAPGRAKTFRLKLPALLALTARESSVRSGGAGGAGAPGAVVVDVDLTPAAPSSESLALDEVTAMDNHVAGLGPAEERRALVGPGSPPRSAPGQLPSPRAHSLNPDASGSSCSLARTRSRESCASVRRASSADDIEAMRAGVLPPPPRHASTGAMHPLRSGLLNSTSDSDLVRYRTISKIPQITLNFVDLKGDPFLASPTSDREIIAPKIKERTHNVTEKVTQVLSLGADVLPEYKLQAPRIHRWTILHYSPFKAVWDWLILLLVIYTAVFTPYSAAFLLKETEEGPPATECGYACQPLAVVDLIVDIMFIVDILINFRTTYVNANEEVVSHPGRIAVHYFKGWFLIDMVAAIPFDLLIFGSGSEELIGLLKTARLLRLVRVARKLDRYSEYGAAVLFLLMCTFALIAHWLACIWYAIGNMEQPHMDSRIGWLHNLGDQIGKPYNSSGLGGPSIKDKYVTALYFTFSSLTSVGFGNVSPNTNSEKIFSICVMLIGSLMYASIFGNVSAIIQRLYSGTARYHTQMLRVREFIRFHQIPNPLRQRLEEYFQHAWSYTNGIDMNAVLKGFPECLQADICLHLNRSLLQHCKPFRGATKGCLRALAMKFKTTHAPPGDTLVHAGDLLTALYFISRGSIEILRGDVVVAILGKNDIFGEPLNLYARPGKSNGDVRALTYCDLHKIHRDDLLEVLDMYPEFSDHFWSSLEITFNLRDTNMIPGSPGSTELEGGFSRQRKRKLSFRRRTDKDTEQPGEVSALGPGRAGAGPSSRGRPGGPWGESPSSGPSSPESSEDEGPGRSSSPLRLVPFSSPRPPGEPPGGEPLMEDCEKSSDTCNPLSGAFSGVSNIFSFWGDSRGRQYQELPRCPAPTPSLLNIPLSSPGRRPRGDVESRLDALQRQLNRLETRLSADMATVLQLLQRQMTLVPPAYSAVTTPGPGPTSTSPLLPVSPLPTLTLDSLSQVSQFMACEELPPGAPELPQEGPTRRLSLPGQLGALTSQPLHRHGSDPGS
Test: Inhibition of recombinant human ERG expressed in HEK293 cells at -80 mV holding potential measured for 9 mins by Qpatch clamp method
pIC50: −log10 of the molar value.

{"GIVEN SMILES": "O=C(CCCCCCNc1ncnc2ccc(F)cc12)NO", "pIC50": "< 4.52"}

Read the next record carefully.
Request: Name the reported pIC50 value associated with the compound O=C(CCCCCCNc1ncnc2ccc(Cl)cc12)NO
Result: < 4.52
